molecular target: Bevacizumab (Homo sapiens); construct: fused on or other part: humanised anti-VEGF-A VH domain N-terminal of the gamma-1 constant region (engineered, no UniProt entry); experiment: Microtiter plate chromatography of resins, Bevacizumab whole IgG (bound, yield, selectivity); format: binding, humanized; details: mass of whole IgG Bevacizumab eluted / mass injected
measure.name: Bevacizumab IgG Yield (%)
Use % as the unit, but write only the number.

Enquiry: What does the data say about its Bevacizumab IgG Yield (%)? Entry: `COc1ccc(-c2noc(C(=O)Nc3ccc(OC)c(C(=O)NCCCN)c3)n2)cc1`
Return: 100

Enquiry: What does the data say about its Bevacizumab IgG Yield (%)? Entry: `COc1ccc(NC(=O)c2cc(C)n(C)n2)cc1C(=O)NCCCN`
Return: 83

Enquiry: What does the data say about its Bevacizumab IgG Yield (%)? Entry: `COc1ccc(NC(=O)c2cc(-c3ccco3)on2)cc1C(=O)NCCCN`
Return: 82

###

tested on: host cell proteins (HCP); assay: Microtiter plate chromatography of resins, host cell proteins (bound); type: binding, CHO; settings: host cell proteins
measure.name: HCP Bound (%)
Use % as the unit, but write only the number.

Enquiry: What does the data say about its HCP Bound (%)? Entry: COc1ccc(NC(=O)c2nc(-c3ccco3)no2)cc1C(=O)NCCCN [Ligand L55]
Return: 31

###

system: Palivizumab; assay: Microtiter plate chromatography of resins, Palivizumab (bound, yield); type: binding, humanized
measure.name: Palivizumab Yield (%)
Use % as the unit, but write only the number.

As a guide, the following entries are already answered.
INSERT INTO results (given_smiles, system, value_units, measured) VALUES
  ('COc1ccc(NC(=O)c2c[nH]c3ccccc23)cc1C(=O)NCCCN', 'Palivizumab', '%', 59),
  ('COc1ccc(NC(=O)c2nn(C)c3ccccc23)cc1C(=O)NCCOCCOCC(=O)NCCOCCOCC(=O)NCCCN', 'Palivizumab', '%', 66),
  ('COc1ccc(NC(=O)c2cc(-c3ccco3)n(C)n2)cc1C(=O)NCCCN', 'Palivizumab', '%', 92);

Enquiry: What does the data say about its Palivizumab Yield (%)? Entry: `COc1ccc(NC(=O)c2cc(-c3ccco3)n(C)n2)cc1C(=O)N(C)CCCN`
Return: 50

Enquiry: What does the data say about its Palivizumab Yield (%)? Entry: `COc1ccc(NC(=O)c2cc(-c3ccco3)ccn2)cc1C(=O)NCCCN`
Return: 83

###

Examples of compounds with documented HCP Bound (%) follow.
System: host cell proteins (HCP)
Assay: Microtiter plate chromatography of resins, host cell proteins (bound)
Type: binding, CHO
Conditions: host cell proteins
Method: Flowthrough from protein A chromatography (referred to as host cell proteins) was derived from the supernatant of antibody-producing CHO cell culture in serum-free medium. Resins were assessed in packed mode by microtiter plate chromatography. […] The fraction of ‘bound’ protein was calculated as the difference between the total mass of protein injected mi and the mass of protein detected in the flowthrough mft, divided by the total mass of protein injected. […]

As a guide, the following entries are already answered.
INSERT INTO results (compound, measured) VALUES
  ('COc1ccc(NC(=O)c2cc(-c3csc(C)n3)on2)cc1C(=O)NCCCN', '32%'),
  ('COc1ccc(NC(=O)c2cn3ncccc3n2)cc1C(=O)NCCOCCOCC(=O)NCCCC[C@H](NC(=O)COCCOCCNC(=O)c1cc(NC(=O)c2cn3ncccc3n2)ccc1OC)C(=O)NCCCN', '3%'),
  ('COc1ccc(NC(=O)c2cc(-c3ccccc3)n(C)n2)cc1C(=O)NCCCN', '64%'),
  ('COc1ccc(NC(=O)c2cc(-c3ccccc3)no2)cc1C(=O)NCCCN', '30%'),
  ('COc1ccc(NC(=O)c2nn(CC(O)CO)c3ccccc23)cc1C(=O)NCCCN (racemic)', '22%');

Enquiry: What does the data say about its HCP Bound (%)? Entry: `COc1ccc(NC(=O)c2cc(-c3ccco3)[nH]n2)cc1C(=O)NCCCN`
Return: 47%

Enquiry: What does the data say about its HCP Bound (%)? Entry: `COc1ccc(NC(=O)c2cc(-c3ccco3)n(C)n2)cc1C(=O)N(C)CCCN`
Return: 35%

Enquiry: What does the data say about its HCP Bound (%)? Entry: `CCn1nc(C(=O)Nc2ccc(OC)c(C(=O)NCCCN)c2)c2ccccc21`
Return: 45%

Enquiry: What does the data say about its HCP Bound (%)? Entry: `COc1ccc(NC(=O)c2n[nH]c3ccc(Cl)cc23)cc1C(=O)NCCCN`
Return: 57%

Enquiry: What does the data say about its HCP Bound (%)? Entry: `COc1ccc(NC(=O)c2cncc(-c3ccccc3)c2)cc1C(=O)NCCCN`
Return: 56%
